Entry source: patent US20200024330A1

Here the recorded IC50 (µg/mL), pseudovirus neutralization is given for each entry.
# tested.on: HIV-1 Env of isolate 92WR020 (HIV-1)
# protocol: cell-based or functional assay
A complete answer gives the number followed by the unit.

Recorded IC50 (µg/mL), pseudovirus neutralization, per entry:
binder	IC50 (µg/mL), pseudovirus neutralization
PGT-125 (antibody, V domains shown) VH: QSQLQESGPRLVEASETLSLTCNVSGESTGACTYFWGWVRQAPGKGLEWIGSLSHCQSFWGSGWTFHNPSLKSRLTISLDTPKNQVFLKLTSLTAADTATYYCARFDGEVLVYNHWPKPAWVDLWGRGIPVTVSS VL: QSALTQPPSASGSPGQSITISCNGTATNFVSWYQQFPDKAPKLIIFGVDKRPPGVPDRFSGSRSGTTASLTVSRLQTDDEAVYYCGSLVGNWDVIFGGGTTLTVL	0.004 µg/mL
PGT-127 (antibody, V domains shown) VH: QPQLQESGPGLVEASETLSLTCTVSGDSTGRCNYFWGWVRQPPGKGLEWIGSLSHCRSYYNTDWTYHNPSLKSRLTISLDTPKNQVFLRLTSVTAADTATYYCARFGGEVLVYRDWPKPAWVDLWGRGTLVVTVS VL: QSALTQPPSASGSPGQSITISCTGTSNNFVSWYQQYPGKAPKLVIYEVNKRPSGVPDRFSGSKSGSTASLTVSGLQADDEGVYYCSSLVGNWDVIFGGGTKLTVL	0.01 µg/mL
PGT-126 (antibody, V domains shown) VH: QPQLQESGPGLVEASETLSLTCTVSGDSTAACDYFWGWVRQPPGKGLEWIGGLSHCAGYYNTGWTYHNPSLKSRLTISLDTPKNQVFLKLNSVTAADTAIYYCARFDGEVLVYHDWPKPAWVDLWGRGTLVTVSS VL: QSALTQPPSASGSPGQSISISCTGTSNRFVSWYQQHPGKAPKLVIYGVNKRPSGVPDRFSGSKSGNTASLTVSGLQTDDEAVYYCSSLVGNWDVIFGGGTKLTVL	0.006 µg/mL

From here, focus on the item given below.
Return IC50 (µg/mL), pseudovirus neutralization (reported value) for this binder: PGT-123 (antibody, V domains shown) VH: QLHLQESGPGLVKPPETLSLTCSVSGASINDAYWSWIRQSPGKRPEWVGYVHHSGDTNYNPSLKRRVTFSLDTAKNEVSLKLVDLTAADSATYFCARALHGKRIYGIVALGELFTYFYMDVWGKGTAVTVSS VL: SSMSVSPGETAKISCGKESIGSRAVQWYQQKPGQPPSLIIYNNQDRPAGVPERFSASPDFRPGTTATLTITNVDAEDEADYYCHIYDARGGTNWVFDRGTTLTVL
0.002 µg/mL
